System: UACC-257
Assay: NCI tumour cell line growth inhibition, 48 h
Activity calls are given as the source filed them. No stated cut-off is given here; in the data, active = GI50 up to about 1.1 µM and inactive = higher.
experimental_endpoint: GI50

* CC[P+]1(CC)CCCC1 | > 100 µM (inactive)
* CCN(CC)CCCC(C)Nc1c2ccc(Cl)cc2nc2cc(Cl)ccc12 (centres undefined) | 4.6 µM (inactive)

In: Which measured GI50 value corresponds to CCCCCCCCCCOC1C(C(O)CNCCCN(C)C)OC2OC3(CCCCC3)OC21 (centres undefined) ?
Out: 4.05 µM (inactive)

In: Similarly, CC1CCC(O)(C(C)(C(=O)O)c2ccccc2)CC1 (centres undefined) ?
Out: > 100 µM (inactive)

In: Now consider Nc1nccc2c1ncn2C1C=C(CO)C(O)C1O (centres undefined) and answer again.
Out: 18.4 µM (inactive)

In: Then this compound: COc1ccc2o/c(=N\c3ccc(F)cc3)c(C(N)=O)cc2c1
Out: > 100 µM (inactive)

In: Repeat with O=c1c2ccccc2[nH]c(=S)n1-c1ccc(/N=N/c2cccc3c(O)cccc23)cc1
Out: 50.9 µM (inactive)

In: Moving on to the next compound: CC(C)(C)c1cc2c(O)c(c1)Cc1cc(C(C)(C)C)cc(c1O)Cc1cc(C(C)(C)C)cc(c1O)Cc1cc(C(C)(C)C)cc(c1O)Cc1cc(C(C)(C)C)cc(c1O)Cc1cc(C(C)(C)C)cc(c1O)Cc1cc(C(C)(C)C)cc(c1O)Cc1cc(C(C)(C)C)cc(c1O)C2
Out: > 50 µM (inactive)

In: Input O=C(C/N=C(\CN(c1ccccc1)c1ccccc1)Oc1c([N+](=O)[O-])cc([N+](=O)[O-])cc1[N+](=O)[O-])N1CCNCC1
Out: > 100 µM (inactive)
